From: patent US10660877B2

Give pIC50 for every item shown.
test target: human TLR8 (Homo sapiens (Human), UniProt Q9NR97)
Sequence (Q9NR97 27-1041): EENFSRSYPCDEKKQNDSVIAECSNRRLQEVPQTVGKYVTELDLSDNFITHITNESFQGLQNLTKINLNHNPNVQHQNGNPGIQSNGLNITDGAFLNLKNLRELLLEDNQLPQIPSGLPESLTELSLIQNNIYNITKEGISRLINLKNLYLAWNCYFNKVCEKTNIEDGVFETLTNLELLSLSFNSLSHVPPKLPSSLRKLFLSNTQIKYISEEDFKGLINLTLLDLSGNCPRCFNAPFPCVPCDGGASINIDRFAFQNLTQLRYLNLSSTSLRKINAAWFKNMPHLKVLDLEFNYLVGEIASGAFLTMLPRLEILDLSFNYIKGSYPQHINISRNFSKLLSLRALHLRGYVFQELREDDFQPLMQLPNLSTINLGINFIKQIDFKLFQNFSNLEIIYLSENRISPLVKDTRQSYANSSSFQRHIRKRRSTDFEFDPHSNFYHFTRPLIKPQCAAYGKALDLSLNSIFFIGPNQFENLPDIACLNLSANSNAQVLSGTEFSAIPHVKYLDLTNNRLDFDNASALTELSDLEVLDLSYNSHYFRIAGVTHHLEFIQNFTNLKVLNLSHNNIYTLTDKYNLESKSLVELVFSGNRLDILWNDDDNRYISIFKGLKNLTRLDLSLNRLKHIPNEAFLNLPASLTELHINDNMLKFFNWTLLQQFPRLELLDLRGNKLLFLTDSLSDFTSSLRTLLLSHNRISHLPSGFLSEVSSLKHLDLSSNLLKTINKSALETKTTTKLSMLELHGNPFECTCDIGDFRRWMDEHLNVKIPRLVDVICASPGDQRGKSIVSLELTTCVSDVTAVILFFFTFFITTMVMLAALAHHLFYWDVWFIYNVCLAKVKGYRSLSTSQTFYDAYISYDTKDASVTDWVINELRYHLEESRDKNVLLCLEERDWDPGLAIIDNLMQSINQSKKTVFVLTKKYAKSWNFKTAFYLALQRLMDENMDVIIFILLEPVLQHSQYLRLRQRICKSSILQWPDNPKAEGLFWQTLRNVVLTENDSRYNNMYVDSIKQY
assay remarks: TLR8 inhibition reporter assay (HEK-Blue cells, SEAP reporter, R848 stimulation);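 also: compounds tested from 0.05 nM to 50 µM, 22 h at 37 °C, SEAP measured with HEK-Blue Detection, inhibition relative to agonist plus DMSO versus a known inhibitor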
condition description: read-out: TLR8 IC50, HEK-Blue cells overexpressing human TLR8, R848 15.9 μM
pIC50 is a log-scale quantity: -log10 of the concentration expressed in molar.

Give reported pIC50 value for Cc1cc(-c2[nH]c3ccc(C4CCN(C(=O)[C@@H]5CC(F)(F)CN5)CC4)cc3c2C(C)C)cc(C)n1
7.13

Give reported pIC50 value for Cc1cc(-c2[nH]c3ccc(C4CCNCC4)cc3c2C(C)C)cc(F)n1
8.42

Give reported pIC50 value for Cc1cc(-c2[nH]c3ccc(C4CCN(S(=O)(=O)Cc5ccccc5)CC4)cc3c2C(C)C)ccn1
6.14

Give reported pIC50 value for CCN(CC)CC(=O)N1CCC(c2ccc3[nH]c(-c4cc(C)nc(C)c4)c(C(C)C)c3c2)CC1
7.89

Give reported pIC50 value for Cc1cc(-c2[nH]c3ccc(C4CCN(C(=O)CN(C)Cc5ncn(C)n5)CC4)cc3c2C(C)C)cc(C)n1
6.93

Give reported pIC50 value for Cc1cc(-c2[nH]c3ccc(C4CCN(C(=O)CN(C)C)CC4)cc3c2C(C)C)ccn1
7.66

Give reported pIC50 value for COc1cc(-c2[nH]c3ccc(C4CCN(C(=O)CN(C)C)CC4)cc3c2C(C)C)ccn1
6.94

Give reported pIC50 value for Cc1cc(-c2[nH]c3ccc(C4CCN(C5CCNC(C)C5)CC4)cc3c2C(C)C)ccn1 (stereo not shown)
8.20

Give reported pIC50 value for CCc1c(-c2cc(C)nc(C)c2)[nH]c2ccc(C3CCN(C(=O)CNC)CC3)cc12
7.55

Give reported pIC50 value for Cc1cc(-c2[nH]c3ccc(C4CCNCC4)cc3c2C2CC2)ccn1
8.15

Give reported pIC50 value for CCc1c(-c2ccnc(C)c2C)[nH]c2ccc(C3CCNCC3)cc12
7.33

Give reported pIC50 value for COc1cc(-c2[nH]c3ccc(C4CCN(C5CCN(C6CCCC6)CC5)CC4)cc3c2C(C)C)ccn1
7.00

Give reported pIC50 value for Cc1cc(-c2[nH]c3ccc(C4CCN(CC(=O)N5CCCC(F)(F)C5)CC4)cc3c2C(C)C)cc(C)n1
7.86

Give reported pIC50 value for Cc1cc(-c2[nH]c3ccc(C4CCN(C(=O)C[C@H](C)O)CC4)cc3c2C(C)C)cc(C)n1
6.83

Give reported pIC50 value for Cc1cc(-c2[nH]c3ccc(C4CCN(CC(=O)N(C)C)CC4)cc3c2C(C)C)cc(C2CC2)n1
7.57

Give reported pIC50 value for Cc1cc(-c2[nH]c3ccc(C4CCN(C(=O)CN(C)C(C)(C)C)CC4)cc3c2C(C)C)cc(C)n1
7.93

Give reported pIC50 value for CCc1c(-c2ccnc(C)c2)[nH]c2ccc(C3CCN(C(=O)C4CCN(C)CC4)CC3)cc12
7.76

Give reported pIC50 value for CC(=O)N1CCC(c2ccc3[nH]c(-c4cc(C)ncc4C)c(C(C)C)c3c2)CC1
7.34

Give reported pIC50 value for COC(=O)N1CCC(c2ccc3[nH]c(-c4ccnc(C)c4)c(C(C)C)c3c2)CC1
5.85

Give reported pIC50 value for Cc1cc(-c2[nH]c3ccc(C4CCN(C(=O)c5ccc(C)n(C)c5=O)CC4)cc3c2C(C)C)cc(C)n1
6.97

Give reported pIC50 value for Cc1cc(-c2[nH]c3ccc(C4CCN(C(=O)C5CCOC(C(C)C)C5)CC4)cc3c2C(C)C)cc(C)n1 (stereo not shown)
6.39

Give reported pIC50 value for Cc1cc(-c2[nH]c3ccc(C4CCN(S(=O)(=O)CC(C)C)CC4)cc3c2C(C)C)ccn1
6.16

Give reported pIC50 value for CC(C)c1c(-c2cc(Cl)ncc2C#N)[nH]c2ccc(C3CCNCC3)cc12
6.32

Give reported pIC50 value for Cc1cc(-c2[nH]c3ccc(C4CCN(CC(=O)N(C)CC#N)CC4)cc3c2C(C)C)cc(C)n1
8.40

Give reported pIC50 value for CC(C)c1c(-c2ccnc(Cl)c2C#N)[nH]c2ccc(C3CCNCC3)cc12
6.34

Give reported pIC50 value for Cc1cc(-c2[nH]c3ccc(C4CCN(C(=O)[C@@H](N)Cc5c[nH]cn5)CC4)cc3c2C(C)C)ccn1
7.81

Give reported pIC50 value for Cc1cc(-c2[nH]c3ccc(C4CCN(Cc5c[nH]c(C)n5)CC4)cc3c2C(C)C)cc(C)n1
8.59

Give reported pIC50 value for COC[C@@H]1CCCN1CC(=O)N1CCC(c2ccc3[nH]c(-c4cc(C)nc(C)c4)c(C(C)C)c3c2)CC1
7.54

Give reported pIC50 value for Cc1cc(-c2[nH]c3ccc(C4CCN(C(=O)[C@@H](N)CCCCN)CC4)cc3c2C(C)C)ccn1
7.01

Give reported pIC50 value for Cc1cc(-c2[nH]c3ccc(C4CCN(C(=O)CN(C)C5CCOC5)CC4)cc3c2C(C)C)cc(C)n1 (stereo not shown)
7.04

Give reported pIC50 value for CCCCN(CCO)CC(=O)N1CCC(c2ccc3[nH]c(-c4cc(C)nc(C)c4)c(C(C)C)c3c2)CC1
7.77
